# measured.on: human CGT (ceramide galactosyltransferase), CHO/CGT lysate (Homo sapiens)
# Construct: Full-length human CGT cDNA was cloned into the BamH1/Xho1 site of pcDNA3.1 (+); expressed in transfected cells; host or cells: Chinese hamster ovary (CHO) cells; lysate prepared with M-PER
# protocol.text: CGT enzyme assay, RapidFire/MS/MS readout (Table 1 ranges with one asterisk *)
# Format: biochemical
# run.conditions: RapidFire method (range with one asterisk *)
Where a name gives a salt, the structure may show the parent alone.
reported.endpoint: IC50

Worked cases, answers included:
>>> value_measured("NC1CC2CCC(C1)N2C(=O)[C@@H](NS(=O)(=O)c1ccc2cc(OC3CCCC3)ccc2c1)C(F)(F)c1ccc2cc(Br)ccc2c1 (stereo partly drawn) [Compound 38-1]")
"1 to 10 µM"
>>> value_measured("NC1CCN(C(=O)[C@@H](NS(=O)(=O)c2ccc3cc(OC4CCCC4)ccc3c2)C(F)(F)c2ccc(Cl)s2)CC1 [Compound 131-1]")
"1 to 10 µM"
>>> value_measured("CCOc1ccc(C(F)(F)[C@H](C(=O)N2C3CCC2CC(N)C3)N(C)S(=O)(=O)c2ccc3cc(OC4CCCC4)ccc3c2)cc1 (stereo partly drawn) [Compound 114-2]")
"10 to 30 µM"

// IC50 lookup, key: NC1CC2CCC(C1)N2C(=O)[C@H](NS(=O)(=O)c1ccc2cc(OC3CCCC3)ccc2c1)C(F)(F)c1ccc(-c2ccc(C(F)(F)F)cc2)cc1 (stereo partly drawn) [Compound 55-2, trifluoroacetate] 1 to 10 µM

// IC50 lookup, key: NC1CC2CCC(C1)N2C(=O)[C@@H](NS(=O)(=O)c1ccc(OCC2CCCCC2)cc1)C(F)(F)c1ccc(-c2ccc(Cl)s2)cc1 (stereo partly drawn) [Compound 104-1] 1 to 10 µM

// IC50 lookup, key: NC1CCN(C(=O)[C@H](NS(=O)(=O)c2ccc3cc(OC4CCCC4)ccc3c2)C(F)(F)c2ccc(Cl)cc2)CC1 [Compound 98-2] 10 to 30 µM

----------
# measured.on: human CGT (ceramide galactosyltransferase), CHO/CGT lysate (Homo sapiens)
# Construct: Full-length human CGT cDNA was cloned into the BamH1/Xho1 site of pcDNA3.1 (+); expressed in transfected cells; host or cells: Chinese hamster ovary (CHO) cells; lysate prepared with M-PER
# Sequence (Q16880 21-541): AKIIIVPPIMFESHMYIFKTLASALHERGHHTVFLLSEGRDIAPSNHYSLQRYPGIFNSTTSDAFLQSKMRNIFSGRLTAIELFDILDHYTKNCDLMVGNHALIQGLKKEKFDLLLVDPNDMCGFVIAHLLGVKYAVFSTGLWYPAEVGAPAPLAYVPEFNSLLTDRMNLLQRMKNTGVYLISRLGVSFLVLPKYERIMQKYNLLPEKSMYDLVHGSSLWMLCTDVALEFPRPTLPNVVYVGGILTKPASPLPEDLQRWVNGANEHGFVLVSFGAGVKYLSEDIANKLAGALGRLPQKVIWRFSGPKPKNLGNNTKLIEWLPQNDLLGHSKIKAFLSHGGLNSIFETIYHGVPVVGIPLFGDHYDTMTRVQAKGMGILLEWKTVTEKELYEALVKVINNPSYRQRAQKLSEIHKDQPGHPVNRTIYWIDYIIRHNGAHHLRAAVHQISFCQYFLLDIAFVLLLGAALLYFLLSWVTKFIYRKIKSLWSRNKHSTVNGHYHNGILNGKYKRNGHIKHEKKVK
# protocol.text: CGT enzyme assay, RapidFire/MS/MS readout (Table 1 ranges with one asterisk *)
# Type: biochemical
# run.conditions: RapidFire method (range with one asterisk *)
Structures can show the parent of a compound that is named as a salt.
IC50 values, listed per item

>>> value_measured("NC1CC2CCC(C1)N2C(=O)[C@H](NC(=O)[C@H](O)c1ccc2cc(OC3CCCC3)ccc2c1)C(F)(F)c1ccc(Br)cc1 (stereo partly drawn) [Compound 41-4, trifluoroacetate]")
"30 to 100 µM"
>>> value_measured("NC1CC2CCC(C1)N2C(=O)[C@H](NC(=O)C(=O)c1ccc2cc(OC3CCCC3)ccc2c1)C(F)(F)c1ccc(-c2ccc(Cl)cc2)cc1 (stereo partly drawn) [Compound 133-2, trifluoroacetate]")
"30 to 100 µM"

The record that follows has no IC50 shown yet.
Enter reported IC50 observed with human CGT (ceramide galactosyltransferase), CHO/CGT lysate (Homo sapiens) for NC1CCN(C(=O)[C@@H](NS(=O)(=O)c2ccc3cc(OC4CCCC4)ccc3c2)C(F)(F)c2cccc(Oc3ccccc3)c2)CC1 [Compound 108-1] < 1 µM
